# test_system: BuChE from equine serum (eqBuChE) (Equus caballus, UniProt P81908)
# Construct: BuChE obtained from equine serum (eqBuChE); purchased Sigma–Aldrich (Steinheim, Germany); host or cells: horse serum
# Sequence (P81908 whole entry): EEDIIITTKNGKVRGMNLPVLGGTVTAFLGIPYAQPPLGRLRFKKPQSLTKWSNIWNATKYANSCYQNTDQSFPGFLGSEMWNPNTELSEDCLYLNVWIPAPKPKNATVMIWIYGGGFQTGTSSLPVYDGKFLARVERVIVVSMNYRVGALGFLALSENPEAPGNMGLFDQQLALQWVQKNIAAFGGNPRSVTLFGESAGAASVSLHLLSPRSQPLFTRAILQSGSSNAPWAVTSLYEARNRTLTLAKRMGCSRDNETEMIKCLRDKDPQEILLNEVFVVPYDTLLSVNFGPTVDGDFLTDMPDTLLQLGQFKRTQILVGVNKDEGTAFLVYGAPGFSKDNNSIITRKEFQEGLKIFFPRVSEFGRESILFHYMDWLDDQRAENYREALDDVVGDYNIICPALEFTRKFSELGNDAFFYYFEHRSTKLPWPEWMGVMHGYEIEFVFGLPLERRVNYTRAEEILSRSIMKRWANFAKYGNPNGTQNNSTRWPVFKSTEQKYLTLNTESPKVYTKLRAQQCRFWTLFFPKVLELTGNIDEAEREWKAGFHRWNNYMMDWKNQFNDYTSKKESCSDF
# method_description: biochemical
# measurement_parameters: read-out: IC50 eqBuChE [µM] +/- SEM
// classify: if (IC50 < 1 µM) label 1 else label 0

CSc1ccc2c(c1)Sc1cc3ccccc3nc1N2CC#CCN1CCCC1 [Compound 25]
label 1
CN1CCCCC1CCN1c2cnccc2Sc2cccnc21 (stereo not shown) [Compound 9]
label 0
CCN(CC)CC#CCN1c2ccc(SC)cc2Sc2cc3ccccc3nc21 [Compound 24]
label 1
c1cnc2c(c1)Sc1ccncc1N2CCN1CCCCC1 [Compound 8]
label 0
C(#CCN1c2cnccc2Sc2cccnc21)CN1CCCC1 [Compound 7]
label 1

# ---- query compound ----
Ask: Is IC50 of O=C1c2ccccc2C(=O)N1CCCN1c2cnccc2Sc2cccnc21 [Compound 10] strictly below 1 µM?
Result: label 0

###

# test_system: AChE from Electrophorus electricus (eeAChE) (Electrophorus electricus, UniProt O42275)
# Construct: purchased Sigma–Aldrich (Steinheim, Germany)
# Sequence (O42275 24-633): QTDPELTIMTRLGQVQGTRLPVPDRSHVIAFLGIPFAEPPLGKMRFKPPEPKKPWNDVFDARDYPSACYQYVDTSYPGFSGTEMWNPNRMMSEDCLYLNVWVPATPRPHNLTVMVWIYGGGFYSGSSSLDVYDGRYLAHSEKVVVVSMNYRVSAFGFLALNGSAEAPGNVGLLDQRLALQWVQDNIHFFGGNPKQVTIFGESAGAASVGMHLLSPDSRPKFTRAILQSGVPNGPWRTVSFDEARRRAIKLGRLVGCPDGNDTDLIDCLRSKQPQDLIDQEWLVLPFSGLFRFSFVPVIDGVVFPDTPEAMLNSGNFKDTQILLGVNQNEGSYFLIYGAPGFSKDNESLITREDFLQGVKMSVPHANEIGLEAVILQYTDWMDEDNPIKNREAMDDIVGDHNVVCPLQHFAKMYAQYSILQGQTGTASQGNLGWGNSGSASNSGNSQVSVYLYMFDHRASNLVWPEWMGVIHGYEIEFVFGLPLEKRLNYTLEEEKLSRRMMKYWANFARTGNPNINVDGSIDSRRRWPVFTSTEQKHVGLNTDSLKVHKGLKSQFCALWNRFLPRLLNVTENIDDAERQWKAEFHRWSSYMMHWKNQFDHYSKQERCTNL
# method_description: biochemical
# measurement_parameters: read-out: % Inhibition +/- SD (eeAChE)
Parameter threshold = 50%. Response is Condition met when inhibition at 10 µM meets or exceeds it, else Condition not met.

The examples below pair each entry with its known result.
Fc1ccc2c(c1)Sc1cc3ccccc3nc1N2CCN1CCCCC1
Condition not met
C(#CCN1c2cccnc2Sc2cccnc21)CN1CCCC1
Condition not met
C(#CCN1c2ccncc2Sc2ccncc21)CN1CCCC1
Condition not met
C(#CCN1c2cccnc2Sc2cccnc21)CN1CCCCC1
Condition met

# ---- query compound ----
Ask: Could you please find out whether CN1CCCCC1CCN1c2cccnc2Sc2cccnc21 (centres unmarked) has inhibition at 10 µM that meets 50% or exceeds it?
Result: Condition not met

###

# test_system: AChE from Electrophorus electricus (eeAChE) (Electrophorus electricus)
# Construct: purchased Sigma–Aldrich (Steinheim, Germany)
# method_description: biochemical
# measurement_parameters: read-out: % Inhibition +/- SD (eeAChE)
Examples of molecules with documented inhibition at 10 µM follow.
Record the value in %, omitting the unit from your answer.

Worked cases, answers included:
Fc1ccc2c(c1)Sc1cc3ccccc3nc1N2 [Compound 19]
6.6
O=C1c2ccccc2C(=O)N1CCCN1c2cccnc2Sc2cccnc21 [Compound 5]
7.3
CN1CCCCC1CCN1c2cnccc2Sc2cccnc21 (stereo not shown) [Compound 9]
58.1
c1cnc2c(c1)Sc1ccncc1N2CCN1CCCCC1 [Compound 8]
33.5
O=C1c2ccccc2C(=O)N1CCCN1c2cnccc2Sc2cccnc21 [Compound 10]
49.6
CN(C)CCCN1c2cnccc2Sc2cccnc21 [Compound 6]
20.4
NCCCCN1c2ccc(F)cc2Sc2cc3ccccc3nc21 [Compound 22]
2.3
CN1CCCCC1CCN1c2ccncc2Sc2ncccc21 (stereo not shown) [Compound 17]
33
CCN(CC)CC#CCN1c2ccc(SC)cc2Sc2cc3ccccc3nc21 [Compound 24]
83.4

# context switch: different molecule, same inhibition at 10 µM
Ask: Kindly indicate its recorded inhibition at 10 µM. Item: C(#CCN1c2cccnc2Sc2cccnc21)CN1CCOCC1 [Compound 3]
Result: 13.7

###

Examples of compounds with documented log10 IC50 follow.
# test_system: AChE from Electrophorus electricus (eeAChE) (Electrophorus electricus, UniProt O42275)
# Construct: purchased Sigma–Aldrich (Steinheim, Germany)
# method_description: biochemical
# measurement_parameters: read-out: IC50 eeAChE [µM] +/- SEM
# Method: Compounds selected through virtual screening were tested for their ability to inhibit the activity of selected biological targets. The cholinesterase-inhibitory potency of the compounds was evaluated according to Ellman’s method using AChE obtained from E. electricus (eeAChE) and BuChE obtained from equine serum (eqBuChE). […]
Quick note: numbers are log10 of IC50, with µM as the unit.

Worked cases, answers included:
C(#CCN1c2ccncc2Sc2ccncc21)CN1CCCCC1
1.05
CSc1ccc2c(c1)Sc1cc3ccccc3nc1N2CC#CCN1CCCC1
0.35
C(#CCN1c2cnccc2Sc2cccnc21)CN1CCCC1
1.00
CN1CCCCC1CCN1c2cnccc2Sc2cccnc21 (centres unmarked)
0.82

# context switch: different compound, same log10 IC50
Ask: Kindly indicate its recorded log10 IC50. Item: CCN(CC)CC#CCN1c2ccc(SC)cc2Sc2cc3ccccc3nc21
Result: -0.11

###

# test_system: BuChE from equine serum (eqBuChE) (Equus caballus, UniProt P81908)
# Construct: BuChE obtained from equine serum (eqBuChE); purchased Sigma–Aldrich (Steinheim, Germany); host or cells: horse serum
# method_description: biochemical
# measurement_parameters: 10 µM compound concentration; mean ± standard deviation; read-out: % Inhibition +/- SD (eqBuChE)
property_measured: inhibition at 10 µM

Worked cases, answers included:
CSc1ccc2c(c1)Sc1cc3ccccc3nc1N2CC#CCN1CCCC1
99.9%
NCCCCN1c2ccc(F)cc2Sc2cc3ccccc3nc21
64.7%
Fc1ccc2c(c1)Sc1cc3ccccc3nc1N2
81%
O=C1c2ccccc2C(=O)N1CCCN1c2cnccc2Sc2cccnc21
71.9%

# context switch: different compound, same inhibition at 10 µM
Ask: Lab note: record inhibition at 10 µM of CN1CCCCC1CCN1c2ccncc2Sc2ncccc21 (stereo not drawn) tested on BuChE from equine serum (eqBuChE) (Equus caballus, UniProt P81908).
Result: 16.1%

###

# test_system: BuChE from equine serum (eqBuChE) (Equus caballus)
# Construct: BuChE obtained from equine serum (eqBuChE); purchased Sigma–Aldrich (Steinheim, Germany); host or cells: horse serum
# method_description: biochemical
# measurement_parameters: 10 µM compound concentration; mean ± standard deviation; read-out: % Inhibition +/- SD (eqBuChE)
# Protocol: Compounds selected through virtual screening were tested for their ability to inhibit the activity of selected biological targets. The cholinesterase-inhibitory potency of the compounds was evaluated according to Ellman’s method using AChE obtained from E. electricus (eeAChE) and BuChE obtained from equine serum (eqBuChE). […]
property_measured: inhibition at 10 µM (%)
Record the value in %, omitting the unit from your answer.

CN1CCCCC1CCN1c2cnccc2Sc2cccnc21 (stereo not shown) [Compound 9]
76.4

Ask: Lab note: record inhibition at 10 µM of CCN(CC)CC#CCN1c2ccncc2Sc2ccncc21 [Compound 11] tested on BuChE from equine serum (eqBuChE) (Equus caballus).
Result: 20.7

Ask: Lab note: record inhibition at 10 µM of C(#CCN1c2ccncc2Sc2ncccc21)CN1CCCC1 [Compound 16] tested on BuChE from equine serum (eqBuChE) (Equus caballus).
Result: 58.5

Ask: Lab note: record inhibition at 10 µM of Fc1ccc2c(c1)Sc1cc3ccccc3nc1N2CCN1CCCCC1 [Compound 23] tested on BuChE from equine serum (eqBuChE) (Equus caballus).
Result: 97.7
